# assay.summary: chemical genetic growth profiling, strain panel (AID 1159580);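 note: tested at 20 µM; growth read once vehicle control cultures reached saturation at 30 °C; 1 = growth at the plate median or of vehicle wells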
# recorded.conditions: S. cerevisiae deletion strains, growth OD, locus YGR229C, strain SMI1, stronger effect = lower value
The whole screen tested about 5,500 compounds, of which about 2,000 (36%) were called active. Not shown: some 18% with an inconclusive outcome. The list shows a part of the results.
quantity.measured: normalized growth
Answer with a bare number; do not write a unit.

**Query** Find the recorded normalized growth belonging to Cc1cc(O)c2c(c1)C(=O)c1cc(O)cc(O)c1C2=O and report it.
**Result** 0.338

**Query** For the molecule Cn1c(=O)c2c(ncn2CCCl)n(C)c1=O , what normalized growth is on record?
**Result** 0.987

**Query** What value of normalized growth has been recorded for this entry: CN(C)CCC[C@@]1(c2ccc(F)cc2)OCc2cc(C#N)ccc21
**Result** 1.02

**Query** // query normalized growth value for entry C#CCn1c(=O)c2c(ncn2C)n(C)c1=O
**Result** 1.03

**Query** Returns the measured normalized growth for the input molecule. Input: COc1cc(O)c2c(c1)C(=O)c1cc(C)cc(O)c1C2=O
**Result** 0.968

**Query** Which normalized growth value belongs to CC[C@H]1OC(=O)[C@H](C)[C@@H](O[C@H]2C[C@@](C)(OC)[C@@H](O)[C@H](C)O2)[C@H](C)[C@@H](O[C@@H]2O[C@H](C)C[C@H](N(C)C)[C@H]2O)[C@](C)(O)C[C@@H](C)/C(=N/OCOCCOC)[C@H](C)[C@@H](O)[C@]1(C)O ?
**Result** 1.01

**Query** State the recorded normalized growth for this entry: Cn1c(=O)c2c(ncn2CCO)n(C)c1=O
**Result** 0.99

**Query** // normalized growth lookup, key: CNC(=O)c1cc2c(cn1)[nH]c1ccccc12
**Result** 1.05

**Query** // query normalized growth value for entry CN1CCC[C@H]1c1cccnc1
**Result** 1.02

**Query** I'd like to know its normalized growth. The molecule in question is COc1cc(O)ccc1C(C)=O
**Result** 1

**Query** For N#CCC(=O)N(Cc1ccccc1F)C(=O)NC1CCCCC1 , what is its reported normalized growth?
**Result** 0.987

**Query** Which normalized growth value is on record for ClC1C(Cl)C(Cl)C(Cl)C(Cl)C1Cl (stereo unspecified) ?
**Result** 0.954

**Query** Which value of normalized growth has been reported for COc1cc(OC)c2c(OC)c(-c3ccc4c(c3)OCO4)c(=O)oc2c1 in the records?
**Result** 0.921

**Query** I'd like to know its normalized growth. The molecule in question is CC(=O)Nc1c(I)cc(I)c(C(=O)O)c1I
**Result** 1.06

**Query** Query (molecule): O=C(CCc1ccc(O)cc1)c1c(O)cc(O)cc1O ; field requested: normalized growth
**Result** 0.979

**Query** What value of measured normalized growth is listed for CON ?
**Result** 1.01

---

# assay.summary: chemical genetic growth profiling, strain panel (AID 1159580)
# recorded.conditions: S. cerevisiae deletion strains, growth OD, locus YBR231C, strain swc5
About 2,000 (36%) of roughly 5,500 compounds were called active. Not shown: some 18% with an inconclusive outcome. No stated cut-off is given here; in the data, active means normalized growth mostly below about 0.91 (no sharp cut-off); inconclusive means no clear call, values can overlap the other calls; inactive means mostly above about 0.92. Some of the results follow.
The reply should name one outcome from T = active, F = inactive

**Query** Tell me the recorded outcome of this test for CC(NC(C)(C)C)C(=O)c1cccc(Cl)c1 (stereo not drawn) .
**Result** F

**Query** // param item: CNC(C)(C)Cc1ccccc1 ; yields the recorded call
**Result** F

**Query** Give the logged outcome of this assay for the following molecule: CC(=O)c1c(O)cc(O)cc1O
**Result** F

**Query** I would be grateful if you could indicate the recorded call for COc1ccc(-c2c(O)c3c(OC)c4c(cc3oc2=O)OC(C)(C)C=C4)cc1 .
**Result** F

**Query** I'd appreciate the recorded outcome for O=C1c2ccccc2C(=O)c2ccccc21 from this test.
**Result** F

**Query** Write down the call the test reported for this molecule. Item: O=C(O)c1cccnc1C(=O)O
**Result** F

**Query** GET /call?item= C/C(=C\CO)CC[C@H](C)CCC[C@H](C)CCCC(C)C returns the recorded outcome of this test.
**Result** F

**Query** Name the outcome recorded for NNCc1ccccc1 in the assay.
**Result** F

**Query** // return assay outcome for CNC(=O)N(C)c1nnc(C(C)(C)C)s1
**Result** F

**Query** Recorded call for COc1cc(O)c2c(c1)C(=O)c1cc(C)cc(O)c1C2=O ?
**Result** F

**Query** Dear all, I need the recorded test outcome for COc1cc(OC)c2c(OC)c(-c3ccc4c(c3)OCO4)c(=O)oc2c1 , thank you.
**Result** F

**Query** Recorded call for COc1cc([C@@H]2c3cc4c(cc3[C@H](O)[C@H]3COC(=O)[C@H]23)OCO4)cc(OC)c1OC ?
**Result** F

**Query** Identify the outcome logged in this assay for the molecule shown: NC(=NCCCCCCN=C(N)N=C(N)Nc1ccc(Cl)cc1)N=C(N)Nc1ccc(Cl)cc1
**Result** T

---

# assay.summary: chemical genetic growth profiling, strain panel (AID 1159580);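 note: tested at 20 µM; growth read once vehicle control cultures reached saturation at 30 °C; 1 = growth at the plate median or of vehicle wells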
# recorded.conditions: S. cerevisiae deletion strains, growth OD, locus YJR075W, strain HOC1, stronger effect = lower value
Hit rate of the full screen: of about 5,500 compounds, about 2,000 (36%) were called active. About 18% were inconclusive and are not listed. This is one part of the list.
quantity.measured: normalized growth
API note: the answer field is a bare number with no unit suffix.

**Query** What value of measured normalized growth is listed for COC(=O)C[C@H]1C(C)(C)[C@@H](OC(C)=O)[C@@H]2CC3=C4CC(=O)O[C@@H](c5ccoc5)[C@]4(C)CCC3[C@@]1(C)C2=O (stereo partly specified) ?
**Result** 0.997

**Query** Entry O=C(NNC(=S)Nc1cccc(Cl)c1)c1cccnc1 : reported normalized growth = ?
**Result** 0.982

**Query** Form field: reported normalized growth of O=C(CSCc1c(Cl)cccc1Cl)NNC(=S)NC1CC2C=CC1C2 (stereo unspecified)
**Result** 0.973

**Query** Can you look up the measured normalized growth of NC(=O)CN1CC(O)CC1=O (stereo unspecified) for me?
**Result** 1.01

**Query** For the molecule Cc1ccc(NC(=S)C(C#N)C(=O)N2CCCC2)c(C)c1 (stereo unspecified) , what normalized growth is on record?
**Result** 1.02

**Query** Which normalized growth is listed for O=C(O)CC[N+](=O)[O-] ?
**Result** 0.987

---

# assay.summary: chemical genetic growth profiling, strain panel (AID 1159580);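 note: tested at 20 µM; growth read once vehicle control cultures reached saturation at 30 °C; 1 = growth at the plate median or of vehicle wells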
# recorded.conditions: S. cerevisiae deletion strains, growth OD, locus YLR133W, strain CKI1, stronger effect = lower value
The campaign covered roughly 5,500 compounds. About 2,000 (36%) were called active. Another 18% or so got no clear call; they are omitted. The list shows a part of the results.
quantity.measured: normalized growth
Could you respond with only the numeric value?

**Query** # normalized growth lookup, item Cc1csc2c(N3CCN(C(=S)Nc4ccc(C(F)(F)F)cc4)CC3)ncnc12
**Result** 0.959

**Query** Requested read-out: normalized growth. Entry: Cc1csc2ncnc(N3CCN(C(=S)Nc4ccc(C(F)(F)F)cc4)CC3)c12
**Result** 0.95

**Query** Bench note: what normalized growth did COC(=O)c1cc(I)c(OC(C)=O)c(I)c1 show?
**Result** 0.949

---

# assay.summary: chemical genetic growth profiling, strain panel (AID 1159580);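 note: tested at 20 µM; growth read once vehicle control cultures reached saturation at 30 °C; 1 = growth at the plate median or of vehicle wells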
# recorded.conditions: S. cerevisiae deletion strains, growth OD, locus YMR078C, strain ctf18, stronger effect = lower value
In all, about 5,500 compounds went through this assay and about 2,000 (36%) were called active. Another 18% or so got no clear call; they are omitted. This is one part of the list.
I'd appreciate it if you could supply normalized growth values for the items below.

**Query** # query: normalized growth of entry CC(=O)OC1CCC2(O)CC1(C)CCC1C2CC1(C)C (stereo unspecified)
**Result** 0.997 (inactive)

**Query** What value of measured normalized growth is listed for CC(C)OC(=O)Nc1cccc(Cl)c1 ?
**Result** 0.935 (inactive)

**Query** # input compound: CCCc1ncc(C[n+]2ccccc2C)c(N)n1 ; wanted: its normalized growth
**Result** 0.999 (inactive)

**Query** Given the compound CN(C)CCC[C@@]1(c2ccc(F)cc2)OCc2cc(C#N)ccc21 , what is its reported normalized growth?
**Result** 1.03 (inactive)

**Query** Field request: normalized growth | item: CC(=O)Oc1c(C)c(C)c2c(c1C)CCC(C)(CCCC(C)CCCC(C)CCCC(C)C)O2 (stereo unspecified)
**Result** 1 (inactive)

**Query** Can you share its normalized growth? I mean this compound: CC(=O)OC1CCC23CC1(C)CCC2C(C)(C)CC3OC(C)=O (stereo unspecified)
**Result** 0.991 (inactive)
